System: Wnt5a (protein binding on small-molecule microarray)
EXPERIMENT SUMMARY: Wnt5a binders on small-molecule microarray, primary screen, biophysical, 635/667 nm fluorescence (AID 1142);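 also: fluorescence read at 667 nm with signal to noise per printed feature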
STATED CONDITIONS: 635 nm fluorescence, higher = more signal
Would you kindly list composite z-score for each of these molecules?
Form: value (number only, do not type unit).

Looking up O=C1C=C(c2ccccc2)C(=O)c2ccc([C@H]3Oc4ccccc4S(=O)(=O)N4CCC[C@@H]34)cc21 , I found its composite z-score recorded as 0.34

Looking up COc1ccc(-c2nc(-c3ccccc3)c3c(c2C)CO[Si]3(C(C)C)C(C)C)cn1 , I found its composite z-score recorded as 0.0934

Looking up CC(=O)NCCCC[C@@H]1NC(=O)[C@@H]2C[C@H](C(=O)NCCCC[N+](C)(C)C)[C@H](c3ccc(O)cc3)N2C1=O , I found its composite z-score recorded as 0.522

Looking up O=C1NC(=O)C2C1C=CC(C(O)CCc1ccccc1)N2Nc1ccc(Cl)cc1Cl (centres undefined) , I found its composite z-score recorded as 0.564

Looking up COCCOC(=O)N1C(=O)[C@@]2(c3cc(C#Cc4ccc(OC)cc4)ccc31)[C@H](C(=O)Nc1nc3ccccc3s1)[C@H]1C(=O)O[C@H](c3ccccc3)[C@H](c3ccccc3)N1[C@@H]2c1ccc(O)cc1 , I found its composite z-score recorded as 0.472

Looking up [N-]=[N+]=NCc1ccccc1C[C@@]1(C(=O)N2CCOCC2)N=C(c2ccc(OCCCO)cc2)O[C@@H]1c1ccccc1 , I found its composite z-score recorded as 0.464

Looking up [N-]=[N+]=Nc1ccccc1[C@H]1OC(c2ccc(OCCCO)cc2)=N[C@@]1(CCS(=O)(=O)c1ccccc1)C(=O)NCCN1CCOCC1 , I found its composite z-score recorded as 1.11

Looking up C=C(/C(=C/C[C@@H](OC(C)=O)c1cccc(OCCO)c1)c1cc(C(=O)OC)ccc1OC)C(C)C , I found its composite z-score recorded as 0.148

Looking up C=CCC(OC(C)=O)[C@@H]1[C@@H](N(Cc2ccc(-c3ccccc3)cc2)C(=O)Cc2ccc(F)cc2)c2cc(OCCCO)ccc2N1C(=O)Cc1ccc(OC)cc1 (some centres undefined) , I found its composite z-score recorded as 0.205

Looking up Cc1ccc(S[C@]2(C(=O)O)CC(=O)N(Cc3ccccc3Cl)[C@@H]2c2ccc(CO)cc2I)cc1 , I found its composite z-score recorded as -0.3

Looking up [N-]=[N+]=Nc1ccccc1[C@H]1OC(c2ccc(OCCCO)cc2)=N[C@@]1(Cc1ccccc1)C(=O)N1CCCCC1 , I found its composite z-score recorded as 1.57

Looking up CN(C)CCCNC(=O)[C@@]1(c2ccc([N+](=O)[O-])cc2)CC(=O)N(CC23CC4CC(CC(C4)C2)C3)[C@@H]1c1ccc(CO)cc1I , I found its composite z-score recorded as 0.607

Looking up COCCCNC(=O)[C@@]1(Cc2ccccc2N=[N+]=[N-])COC(c2ccc(OCCCO)cc2)=N1 , I found its composite z-score recorded as 0.926

Looking up C=CCOC(=O)[C@H]1[C@@H]2C(=O)O[C@@H](c3ccccc3)[C@@H](c3ccccc3)N2[C@@H](c2ccc(OCCOC(=O)[C@@H]3C[C@@H]4C(=O)N5CCC[C@H]5C(=O)N4[C@@H]3c3ccc(O)cc3)cc2)[C@]12C(=O)Nc1ccc(I)cc12 , I found its composite z-score recorded as 0.269

Data provenance: PubChem BioAssay
